Target: human TLR7 (Homo sapiens, UniProt Q9NYK1)
Sequence (Q9NYK1 27-1049): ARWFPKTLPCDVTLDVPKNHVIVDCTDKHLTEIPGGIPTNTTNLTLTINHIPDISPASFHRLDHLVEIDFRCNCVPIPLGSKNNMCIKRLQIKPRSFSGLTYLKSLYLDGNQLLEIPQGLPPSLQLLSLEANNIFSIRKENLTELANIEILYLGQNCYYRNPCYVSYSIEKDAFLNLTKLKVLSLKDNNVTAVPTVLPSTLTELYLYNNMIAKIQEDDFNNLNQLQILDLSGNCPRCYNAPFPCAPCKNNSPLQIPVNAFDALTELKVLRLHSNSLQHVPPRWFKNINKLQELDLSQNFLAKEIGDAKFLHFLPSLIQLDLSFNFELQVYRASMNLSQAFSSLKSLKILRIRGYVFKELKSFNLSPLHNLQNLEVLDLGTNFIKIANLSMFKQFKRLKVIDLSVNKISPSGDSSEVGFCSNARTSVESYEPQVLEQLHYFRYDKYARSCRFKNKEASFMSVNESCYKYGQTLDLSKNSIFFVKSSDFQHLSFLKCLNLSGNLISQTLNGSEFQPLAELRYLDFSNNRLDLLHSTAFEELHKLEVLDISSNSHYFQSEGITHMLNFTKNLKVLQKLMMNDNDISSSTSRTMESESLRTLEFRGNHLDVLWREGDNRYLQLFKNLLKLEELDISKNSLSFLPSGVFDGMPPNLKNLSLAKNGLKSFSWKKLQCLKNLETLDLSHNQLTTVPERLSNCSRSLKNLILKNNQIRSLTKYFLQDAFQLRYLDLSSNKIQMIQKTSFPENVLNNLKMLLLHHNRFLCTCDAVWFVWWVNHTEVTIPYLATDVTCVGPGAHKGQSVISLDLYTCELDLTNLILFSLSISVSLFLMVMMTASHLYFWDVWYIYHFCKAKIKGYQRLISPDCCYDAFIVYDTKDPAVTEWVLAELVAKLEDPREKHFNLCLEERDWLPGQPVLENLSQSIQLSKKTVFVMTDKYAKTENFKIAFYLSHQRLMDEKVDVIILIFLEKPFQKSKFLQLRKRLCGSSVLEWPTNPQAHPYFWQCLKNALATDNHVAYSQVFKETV
Assay: Human TLR7 agonist activity assay (HEK-Blue TLR7 SEAP reporter)
Details: HEK-Blue TLR7 cells, 18 h treatment, average where assay performed multiple times, read-out: hTLR7 Agonism EC50
VALUE_KIND: EC50 (nM)

The examples below pair each entry with its known result.
CCCCNc1nc(N)nc2cnn(Cc3ncc(C4CCN(C(=O)CN5CC6(CN(C)C6)C5)CC4)cc3OC)c12 [Compound 117] : 856
COc1cc(C2CCN(C3CC4(COC4)C3)CC2)cnc1Cn1ncc2nc(N)nc(NCC3CC4(CC4)C3)c21 (stereo not shown) [Compound 154] : 34
CCCCNc1nc(N)nc2cnn(Cc3ncc(C4CCN(C(=O)CCOC)CC4)cc3OC)c12 [Compound 104] : 445
CCCCNc1nc(N)nc2cnn(Cc3ccc(C4CCNCC4)cc3OC)c12 [Compound 160] : 13
CCCCNc1nc(N)nc2cnn(Cc3ncc(C4CCN(CC5CCOCC5)CC4)cc3OC)c12 [Compound 218] : 25.9

P = COc1cc(C2CCN(C3CCOCC3)CC2)cnc1Cn1ncc2nc(N)nc(NCC3CC4(CC4)C3)c21 [Compound 157]
Q = CCC[C@@H](CCO)Nc1nc(N)nc2cnn(Cc3ncc(C4CCN(C(=O)CCN(C)C)CC4)cc3OC)c12 [Compound 136]
Given the listed items, does P or Q have the lesser reported EC50? // caller expects the label of the chosen entry P
(P: 50.8 nM, Q: 197 nM)
